system: L132; assay: Cytotoxic activity against human L132 cell line was measured after 72 hr using MTT assay; assay type: functional; details: L132, 72 h, read-out: ED50 (the source's name)
I'd be grateful if you could share measured EC50 for these entries.

Query: Using the record for C=C(C)[C@@H]1CC[C@]2(C(=O)OCC(=O)O)CC[C@]3(C)C(CCC4[C@@]5(C)CC[C@H](O)C(C)(C)C5CC[C@]43C)C12 (stereo partly specified) , report its EC50.
Response: > 10 µg/mL

Query: Consider the compound COC(=O)COC(=O)[C@]12CC[C@@H](C(C)(Br)CBr)C1C1CCC3[C@@]4(C)CC(Br)C(=O)C(C)(C)C4CC[C@@]3(C)[C@]1(C)CC2 (stereo partly specified) and give its measured EC50.
Response: > 10 µg/mL

Query: Requested read-out: EC50. Entry: COC(=O)C(C)C(=O)O[C@H]1CC[C@@]2(C)C(CC[C@]3(C)C2CCC2C4[C@H](C(C)C)CC[C@]4(C(=O)O)CC[C@]23C)C1(C)C (stereo partly specified)
Response: 7.7 µg/mL

Query: EC50 for C=C(C)[C@@H]1CC[C@]2(C(=O)O)CC[C@]3(C)[C@H](CC[C@@H]4[C@@]5(C)CCC(=O)C(C)(C)[C@@H]5CC[C@]43C)[C@@H]12 ?
Response: > 10 µg/mL

Query: Data request, read-out EC50, for C=C(C)[C@@H]1CC[C@]2(C(=O)O)CC[C@]3(C)[C@H](CC[C@@H]4[C@@]5(C)CC[C@H](O)C(C)(C)[C@@H]5CC[C@]43C)[C@@H]12
Response: 1.3 µg/mL

Query: Give its EC50 value. Item: CC(C)[C@@H]1CC[C@]2(C(=O)O)CC[C@]3(C)C(CCC4[C@@]5(C)CC/C(=N\Nc6ccccc6)C(C)(C)C5CC[C@]43C)C12 (stereo partly specified)
Response: 7.4 µg/mL

Query: I am curious: what EC50 value has been reported for C=C(C)[C@@H]1CC[C@]2(C(=O)O)CC[C@]3(C)C(CCC4[C@@]5(C)CC/C(=N\OS(=O)(=O)c6ccc(C)cc6)C(C)(C)C5CC[C@]43C)C12 (stereo partly specified) ?
Response: > 10 µg/mL

Query: EC50 lookup needed for CC(C)[C@@H]1CC[C@]2(C(=O)O)CC[C@]3(C)C(CCC4[C@@]5(C)CC/C(=N\O)C(C)(C)C5CC[C@]43C)C12 (stereo partly specified) , thanks.
Response: 1.5 µg/mL

Query: # query: EC50 of entry COC(=O)COC(=O)[C@]12CC[C@@H](C(C)C)C1C1CCC3[C@@]4(C)CC(Br)C(=O)C(C)(C)C4CC[C@@]3(C)[C@]1(C)CC2 (stereo partly specified)
Response: > 10 µg/mL

Query: Give its EC50 value. Item: COC(=O)COC(=O)[C@]12CC[C@@H](C(C)C)C1C1CCC3[C@@]4(C)CC[C@H](O)C(C)(C)C4CC[C@@]3(C)[C@]1(C)CC2 (stereo partly specified)
Response: > 10 µg/mL

Query: Data request, read-out EC50, for C=C(C)[C@@H]1CC[C@]2(C(=O)O)CC[C@]3(C)C(CCC4[C@@]5(C)CC[C@H](OC(=O)C(C)C(=O)OC)C(C)(C)C5CC[C@]43C)C12 (stereo partly specified)
Response: > 10 µg/mL

Reference source: ChEMBL document CHEMBL1138817
